Attribute: IC50
Assay: Inhibition of PBP5 in penicillin-resistant Enterococcus faecium D63r membranes assessed as inhibition of fluorescent ampicillin binding after 20 mins at 37 degC
Form entry: value (µg/mL) — number only.

Structure notation: CC1(C)S[C@@H]2[C@H](NC(=O)Cc3ccccc3)C(=O)N2[C@H]1C(=O)O
Meas value: 55

Entry Nc1nc(/C(=N/O)C(=O)N[C@@H]2C(=O)N3C(C(=O)O)=C(/C=C4\CCN([C@@H]5CCNC5)C4=O)CS[C@H]23)ns1 : reported IC50 = ?
1
